assay.target: NS3 (West Nile virus, UniProt K4FQI5)
Sequence (K4FQI5 whole entry): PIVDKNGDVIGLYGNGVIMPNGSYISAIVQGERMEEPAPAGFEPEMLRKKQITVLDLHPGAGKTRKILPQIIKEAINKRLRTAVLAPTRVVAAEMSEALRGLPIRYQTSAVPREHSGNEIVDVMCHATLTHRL
assay: Functional biochemical assay to identify treatments for viral infectious disease that targets West Nile NS2B-NS3 protease. Utilizing a direct enzyme activity measurement method, reading the fluorescence intensity is used to characterize the relative potency of inhibitors as IC50.
Give IC50 for every item shown.

What the record says about "c1ccc2c(CN3CCC(c4cscn4)CC3)c[nH]c2c1" : IC50 is > 99.5 µM

Entry "O=C1Cc2c(cc(Br)cc2C(=O)Nc2ccc3c(c2)CNC3)N1" , IC50 reported as 3.18 µM

Per the records, this compound ( "N#Cc1c[nH]c2ccc(C(=O)Nc3ccc4c(c3)CNC4)cc12" ) has IC50 equal to 9.06 µM

The compound listed as "O=C(Nc1ccc2c(c1)CNC2)c1cc(F)cc2[nH]c(-c3ccc(F)cc3)nc12" has a reported IC50 of 5.37 µM

In plain terms, "CCn1c(=O)c(N2CC[C@@H](CO)C2)nc2ccccc21" has a documented IC50 of > 99.5 µM

get_value(item= "Cc1cnccc1-c1cc(NC(=O)c2cc(F)cc3[nH]ncc23)cc2c1CNC2" , readout=IC50) returns 2.77 µM

Looking up "O=C(Nc1cc2c(c(C3=CC[C@H](O)CC3)c1)CNC2)c1cc(Cl)cc2[nH]ncc12" , I see its IC50 listed as 3.82 µM

IC50 reported for this compound "CCOc1cccc(-c2ccc(S(=O)(=O)Nc3ccc(Cl)cc3C(=O)O)cc2)c1" : 12.6 µM

Record summary for "NCc1cc(Cl)cc(C(=O)Nc2ccc3c(c2)CNC3)c1" : reported IC50 = 9.96 µM

Looking up "O=C(Nc1ccc2c(c1)CNC2)c1cc(Br)cc2[nH]c(-c3ccccc3)nc12" , I found its IC50 recorded as 11.4 µM

Reported IC50 of "O=C(NCC(F)F)[C@H](Nc1ccc2c(c1)CNC2)c1cc(F)cc2[nH]ncc12" : 0.247 µM

# IC50 of "O=C(Nc1ccc2c(c1)CNC2)c1cc(Cl)cc2c1CCC2" = 22.7 µM

# IC50 (compound: "Cc1cc(C(=O)Nc2ccc3c(c2)CNC3)c2cn[nH]c2c1" ) is 9.64 µM

Looking up "CO[C@H]1C[C@H](n2ncc3c(C(=O)Nc4ccc5c(c4)CNC5)cc(Cl)cc32)C1" , I see its IC50 listed as 2.55 µM

Note to self: IC50 recorded for "O=C(Nc1cc(Cl)cc(C(=O)Nc2cccc([C@H]3C[C@H]3C(=O)O)c2)c1)OCc1ccccc1" was 81.5 µM

IC50 for "C=CC[C@H]1NCc2cc(NC(=O)c3cccc4c3CC(=O)N4)ccc21" is 8.03 µM

response.value for "O=C(NCC(F)F)[C@H](Nc1ccc2c(c1)CNC2)c1cc(Cl)cc(Cl)c1Cl" (field: IC50) = 0.936 µM

# IC50 of "O=C(Nc1ccc2c(c1)CNC2)c1cc(Cl)cc2[nH]c(-c3cc(C4CC4)[nH]n3)nc12" = 10.1 µM

// "CCCNC(=O)[C@H](Nc1ccc2c(c1)CNC2)c1cc(Cl)cc2[nH]ncc12" : IC50 value = 0.356 µM

Value of measured IC50 for the entry "O=C(Nc1ccc2c(c1)CNC2)c1cc(Cl)cc2[nH]c(CCc3cccnc3)nc12" : 87.1 µM

GET /value?item= "O=C(Nc1ccc2c(c1)CCNCC2)c1cc(Cl)cc2[nH]ncc12" &field=IC50 returns 48.5 µM

Entry under test: "CCCCCC(=O)N[C@H](C(=O)N1CCCCC1)c1ccc(OCc2ccccc2)cc1" . Its IC50 was > 99.5 µM

Sure, the documented IC50 for "O=C(Nc1ccc2c(c1)CNC2)c1cc(Cl)cc(N2CCCC2=O)c1" is 24.8 µM

IC50 for "NCc1cccc(NC(=O)C[C@@H](NC(=O)OCc2ccccc2)c2ccc(OCc3ccccc3)cc2)c1" is 6.15 µM

IC50 in this record for "O=C(Nc1ccc2c(c1)CN[C@H]2CCO)c1cc(F)cc2[nH]ncc12" : 1.66 µM

Query "NCCc1cc(Cl)cc(C(=O)Nc2cccc(CN)c2)c1" yields IC50 of 5.52 µM

So, "O=C(Nc1ccc2c(c1)CNC2)c1cc(F)c2[nH]ccc2c1" ? Its IC50 was 20.1 µM

compound "NCc1cccc(NC(=O)[C@H]2[C@H]3CCCCC[C@H]3[C@H]2NC(=O)OCc2ccccc2)c1" , IC50 observed: 47.1 µM

GET /value?item= "O=C(NC[C@H]1CCCO1)[C@H](Nc1ccc2c(c1)CNC2)c1cc(Cl)cc(C2CC2)c1" &field=IC50 returns 0.498 µM

Form: compound = "CN(C)c1nc(-c2cc(F)cc(C(=O)Nc3ccc4c(c3)CNC4)c2)cs1" ; IC50 = 12.6 µM

Reported IC50 of "O=C(Nc1ccc2c(c1)CNC2)c1cc(Cl)cc2[nH]ncc12" : 3.09 µM

# IC50 (compound: "O=C(Nc1ccc2c(c1)CNC2)c1cc(F)cc2[nH]cnc12" ) is 13.5 µM

Form field IC50, entry "O=C(Nc1ccc2c(c1)CNC2)c1cc(Cl)cc2nn(-c3ccccc3)nc12" : 21.5 µM

Measured IC50 of "COc1cc(C(=O)Nc2ccc3c(c2)CNC3)cc2ccoc12" : 48.9 µM

Entry "Cc1c(C(=O)Nc2cc(CCCN)ccn2)cc(C2CC2)n1C" — recorded IC50 = 58.6 µM

get_value(item= "CN(C)C(=O)CCCc1nc2c(C(=O)Nc3ccc4c(c3)CNC4)cc(Cl)cc2[nH]1" , readout=IC50) returns > 99.5 µM

Lab book: IC50 of "Cc1ccccc1-c1nc2c(C(=O)Nc3ccc4c(c3)CNC4)cc(F)cc2[nH]1" noted as 8.51 µM

# IC50 (compound: "O=C(Nc1ccc2c(c1)CNC2)c1cc(Cl)cc2[nH]c(-c3nc4c(s3)CCC4)nc12" ) is 40.3 µM

Data point: "COC[C@]1(c2nc3c(C(=O)Nc4ccc5c(c4)CNC5)cc(F)cc3[nH]2)CCOC1" ; IC50 = 20.5 µM

Form field IC50, entry "NCc1cccc(NC(=O)C[C@H](NC(=O)OCc2ccccc2)c2ccc(OCc3ccccc3)c(Br)c2)c1" : 8.65 µM

Record summary for "Cc1c(C(=O)Nc2cc([C@H]3CCOC3)ccn2)cc(C2CC2)n1C" : reported IC50 = 2.68 µM
